run_description: In vitro disulfide cleavage and immolation by incubation with cysteine or glutathione (LC/MS)
Assay type: physicochemical
experimental_context: 4 mM GSH, pH 7.0, 37° C., 24 h
experimental_endpoint: Percentage of all products (%)
Output spec: scalar in %, unitless text.

Prompt: I'd like to know its Percentage of all products. The molecule in question is C=C1CC2C=Nc3cc(OCCCCCOc4cc5c(cc4OC)C(=O)N4CC(=C)CC4C(O)N5C(=O)OCC(C)SSCC(NC(=O)CCC(N)C(=O)O)C(=O)NCC(=O)O)c(OC)cc3C(=O)N2C1 (stereo not drawn) [Compound 3b]
Response: 0

Prompt: Please answer likewise for C=C1C[C@H]2C=Nc3cc(OCCCCCOc4cc5c(cc4OC)C(=O)N4CC(=C)C[C@H]4C(O)N5C(=O)OCC4(SSc5ccc([N+](=O)[O-])cn5)CC4)c(OC)cc3C(=O)N2C1 (stereo partly drawn) [Compound 2]
Response: 4.3

Prompt: Please answer likewise for C=C1C[C@H]2C=Nc3cc(OCCCCCOc4cc5c(cc4OC)C(=O)N4CC(=C)C[C@H]4C(O)N5C(=O)OCC4(SSc5ccc([N+](=O)[O-])cn5)CCC4)c(OC)cc3C(=O)N2C1 (stereo partly drawn) [Compound 11]
Response: 0.7

Prompt: Please answer likewise for C=C1CC2C=Nc3cc(OCCCCCOc4cc5c(cc4OC)C(=O)N4CC(=C)CC4C(O)N5C(=O)OCC(C)SSc4ccc([N+](=O)[O-])cn4)c(OC)cc3C(=O)N2C1 (stereo not drawn) [Compound 1]
Response: 0.1

Prompt: Please answer likewise for C=C1C[C@H]2C=Nc3cc(OCCCCCOc4cc5c(cc4OC)C(=O)N4CC(=C)C[C@H]4C(O)N5C(=O)OCC4(SSC[C@H](NC(=O)CC[C@H](N)C(=O)O)C(=O)NCC(=O)O)CC4)c(OC)cc3C(=O)N2C1 (stereo partly drawn) [Compound 4b]
Response: 1.0

Prompt: Please answer likewise for C=C1CC2C=Nc3cc(OCCCCCOc4cc5c(cc4OC)C(=O)N4CC(=C)CC4C(O)N5C(=O)OCC(C)S)c(OC)cc3C(=O)N2C1 (stereo not drawn) [Compound 6]
Response: 0

Prompt: Please answer likewise for C=C1C[C@H]2C=Nc3cc(OCCCCCOc4cc5c(cc4OC)C(=O)N4CC(=C)C[C@H]4C(O)N5C(=O)OCC4(S)CCC4)c(OC)cc3C(=O)N2C1 (stereo partly drawn) [Compound 13]
Response: 0

Prompt: Please answer likewise for C=C1C[C@H]2C=Nc3cc(OCCCCCOc4cc5c(cc4OC)C(=O)N4CC(=C)C[C@H]4C(O)N5C(=O)OCC4(SSC[C@H](NC(=O)CC[C@H](N)C(=O)O)C(=O)NCC(=O)O)CCC4)c(OC)cc3C(=O)N2C1 (stereo partly drawn) [Compound 12b]
Response: 0

Prompt: Please answer likewise for C=C1C[C@H]2C=Nc3cc(OCCCCCOc4cc5c(cc4OC)C(=O)N4CC(=C)C[C@H]4[C@H](O)N5C(=O)OCC4(S)CC4)c(OC)cc3C(=O)N2C1 [Compound 7]
Response: 92.3

====

target_of_assay: penetratin (AntP) peptide (Drosophila melanogaster, UniProt P02833)
Construct: C-terminal amide (CONH2); made in house; host or cells: chemical synthesis (Fmoc solid-phase peptide synthesis)
run_description: Conjugation of activated disulfide-MMAE molecules to penetratin (AntP) peptide (% Product)
experimental_context: peptide 25 uM, disulfide MMAE 5 equivalents, 75 mM Tris pH 8.5 and 10% DMF, ~16 hours at room temperature, UV peak area
Where a SMILES comes first, the peptide text is derived from it. [ ]: non-standard residue; d: D form. The star is where a group is joined. Dolaproine = CO[C@@H]([C@@H]1CCCN1)[C@@H](C)C(=O)O; X22 = CC(C)(COC(=O)*)SSc1nc2cccc(C(=O)O)c2[nH]1; Dil = CC[C@H](C)[C@H](NC)[C@@H](CC(=O)O)OC; X4 = CC(C)(COC(=O)*)SSc1nc2ncnc(N)c2[nH]1; X12 = Cn1c(C(=O)O)cnc1SSC(C)(C)COC(=O)*; X2 = C[C@@H](N*)[C@@H](O)c1ccccc1; X21 = CC(C)(COC(=O)*)SSc1ncc[nH]1; X9 = CC(C)(COC(=O)*)SSc1nnn[nH]1; X1 = Cn1nnnc1SSC(C)(C)COC(=O)*; X18 = CC(C)(COC(=O)*)SSC(=N)N; NMeV = CN[C@H](C(=O)O)C(C)C
experimental_endpoint: AntP % P (penetratin (AntP) peptide % product) (%)
Output spec: scalar in %, unitless text.

Prompt: I'd like to know its AntP % P (penetratin (AntP) peptide % product). The compound in question is CC[C@H](C)[C@@H]([C@@H](CC(=O)N1CCC[C@H]1[C@H](OC)[C@@H](C)C(=O)N[C@H](C)[C@@H](O)c1ccccc1)OC)N(C)C(=O)[C@@H](NC(=O)[C@H](C(C)C)N(C)C(=O)OCC(C)(C)SSc1nc2cccc(C(=O)O)c2[nH]1)C(C)C (X22-[NMeV]V[Dil][Dolaproine]-X2)
Response: 25

Prompt: Please answer likewise for CC[C@H](C)[C@@H]([C@@H](CC(=O)N1CCC[C@H]1[C@H](OC)[C@@H](C)C(=O)N[C@H](C)[C@@H](O)c1ccccc1)OC)N(C)C(=O)[C@@H](NC(=O)[C@H](C(C)C)N(C)C(=O)OCC(C)(C)SSc1nnn[nH]1)C(C)C (X9-[NMeV]V[Dil][Dolaproine]-X2)
Response: 1.9

Prompt: Please answer likewise for CC[C@H](C)[C@@H]([C@@H](CC(=O)N1CCC[C@H]1[C@H](OC)[C@@H](C)C(=O)N[C@H](C)[C@@H](O)c1ccccc1)OC)N(C)C(=O)[C@@H](NC(=O)[C@H](C(C)C)N(C)C(=O)OCC(C)(C)SSc1nc2ncnc(N)c2[nH]1)C(C)C (X4-[NMeV]V[Dil][Dolaproine]-X2)
Response: 21

Prompt: Please answer likewise for CC[C@H](C)[C@@H]([C@@H](CC(=O)N1CCC[C@H]1[C@H](OC)[C@@H](C)C(=O)N[C@H](C)[C@@H](O)c1ccccc1)OC)N(C)C(=O)[C@@H](NC(=O)[C@H](C(C)C)N(C)C(=O)OCC(C)(C)SSC(=N)N)C(C)C (X18-[NMeV]V[Dil][Dolaproine]-X2)
Response: 90

Prompt: Please answer likewise for CC[C@H](C)[C@@H]([C@@H](CC(=O)N1CCC[C@H]1[C@H](OC)[C@@H](C)C(=O)N[C@H](C)[C@@H](O)c1ccccc1)OC)N(C)C(=O)[C@@H](NC(=O)[C@H](C(C)C)N(C)C(=O)OCC(C)(C)SSc1ncc(C(=O)O)n1C)C(C)C (X12-[NMeV]V[Dil][Dolaproine]-X2)
Response: 4

Prompt: Please answer likewise for CC[C@H](C)[C@@H]([C@@H](CC(=O)N1CCC[C@H]1[C@H](OC)[C@@H](C)C(=O)N[C@H](C)[C@@H](O)c1ccccc1)OC)N(C)C(=O)[C@@H](NC(=O)[C@H](C(C)C)N(C)C(=O)OCC(C)(C)SSc1ncc[nH]1)C(C)C (X21-[NMeV]V[Dil][Dolaproine]-X2)
Response: 1.7

Prompt: Please answer likewise for CC[C@H](C)[C@@H]([C@@H](CC(=O)N1CCC[C@H]1[C@H](OC)[C@@H](C)C(=O)N[C@H](C)[C@@H](O)c1ccccc1)OC)N(C)C(=O)[C@@H](NC(=O)[C@H](C(C)C)N(C)C(=O)OCC(C)(C)SSc1nnnn1C)C(C)C (X1-[NMeV]V[Dil][Dolaproine]-X2)
Response: 32
